# System: Plasmodium falciparum NF54 gametocytes
# Measurement Notes: viability index relative to DMSO control (fraction); higher = less gametocyte killing
# Experimental Parameters: gametocyte stage: Stage II viability index; 12.5 µM; incubation time: 72 h
The threshold is 0.4. Values of viability index beneath it are tagged TRUE; values meeting or exceeding it are tagged FALSE.

[[record]]
compound = "COc1cc(C(=O)Nc2nc3c(cc4c5c(cccc53)CC4)s2)cc(OC)c1OC"
assayed_system = "Plasmodium falciparum NF54 gametocytes"
discrete_label = "FALSE"

[[record]]
compound = "Clc1ccc2[nH]c3c(NCCCN4CCOCC4)ncnc3c2c1"
assayed_system = "Plasmodium falciparum NF54 gametocytes"
discrete_label = "FALSE"

[[record]]
compound = "CCCCC(O)(c1ccc(Cl)cc1)C(CN1CCOCC1)c1ccc(Cl)cc1 (stereo not given)"
assayed_system = "Plasmodium falciparum NF54 gametocytes"
discrete_label = "FALSE"

[[record]]
compound = "O=C(Cc1ccccc1)NC(c1ccc(Cl)cc1)c1c(O)ccc2ccccc12 (stereo not given)"
assayed_system = "Plasmodium falciparum NF54 gametocytes"
discrete_label = "TRUE"


Field: next compound
Take the compound O=C(Nc1ccc(-c2nc3cc(NC(=O)c4ccc(Cl)cc4)ccc3[nH]2)cc1)c1ccc(Cl)cc1 and say whether its viability index is less than 0.4.
TRUE

###

Recorded viability index values for a group of compounds are listed next.
# Tested on: Plasmodium falciparum NF54 gametocytes
# Measurement Notes: viability index relative to DMSO control (fraction); higher = less gametocyte killing
# Experimental Parameters: gametocyte stage: Stage V viability index; 12.5 µM; incubation time: 72 h
Output: the number by itself.

Consider the following illustrative entries.
[[record]]
compound = "CCOC(=O)c1c(C)n(-c2ccc(Cl)cc2)c2ccc(OC(=O)C=Cc3ccccc3)cc12"
assayed_system = "Plasmodium falciparum NF54 gametocytes"
readout_number = 0.978

[[record]]
compound = "CC(C)(C)CC(C)(C)NCC(O)COc1ccc2c(c1)CCC2 (centres undefined)"
assayed_system = "Plasmodium falciparum NF54 gametocytes"
readout_number = 0.462

[[record]]
compound = "Cn1c(C(=O)c2cccc3ccccc23)nc2ccccc21"
assayed_system = "Plasmodium falciparum NF54 gametocytes"
readout_number = 0.74

[[record]]
compound = "COc1ccc(C=C2SC(Nc3ccccc3)=NC2=O)cc1"
assayed_system = "Plasmodium falciparum NF54 gametocytes"
readout_number = 0.727

[[record]]
compound = "Cc1ccc(Nc2nc(NCCO)c3ccccc3n2)cc1C"
assayed_system = "Plasmodium falciparum NF54 gametocytes"
readout_number = 0.659

[[record]]
compound = "O=C(NC1CCCCC1)C(c1cccs1)N(CCc1ccccc1)C(=O)c1ccco1 (centres undefined)"
assayed_system = "Plasmodium falciparum NF54 gametocytes"
readout_number = 0.961

[[record]]
compound = "COc1ccc(NC(=O)C2c3ccccc3C(=O)N(CC(C)C)C2c2cccs2)cc1 (centres undefined)"
assayed_system = "Plasmodium falciparum NF54 gametocytes"
readout_number = 0.0549

[[record]]
compound = "CN1CCN(c2nc(Nc3ccc(O)cc3)nc3ccccc23)CC1"
assayed_system = "Plasmodium falciparum NF54 gametocytes"
readout_number = 0.74


// next entry
Looking up COc1cc(SC)ccc1C(=O)N1CCCC(C)C1 (centres undefined) , I found its viability index recorded as 1.18

###

# Test system: Plasmodium falciparum NF54 gametocytes
# Measurement Notes: viability index relative to DMSO control (fraction); higher = less gametocyte killing
# Experimental Parameters: gametocyte stage: Stage I viability index; 12.5 µM; incubation time: 72 h
Recorded viability index values for a group of molecules are listed next.

Looking up CC(O)(c1ccc(Cl)cc1)C(CN1CCCCC1)c1ccccc1 (centres undefined) , I found its viability index recorded as 0.115

Looking up COc1ccc(-c2c(C)nn3c(N)c(C#N)cnc23)cc1OC , I found its viability index recorded as 0.0343

Looking up CCCCCCc1cc2cc(-c3csc(C=Cc4ccccc4)n3)c(=O)oc2cc1O , I found its viability index recorded as 0.309

Looking up COc1ccc(-n2ccnc2SCC(=O)Nc2cc(C)ccc2C)c(OC)c1 , I found its viability index recorded as 1.07
